These entries and their values trace back to paper PMC8424372.

# Format: in vivo, human
# settings: male, human, in vivo, po, 9.6 g
measurement.kind: Vd/F (L)
Please respond with the number in L and leave the unit unwritten.

Query :: Request the reported Vd/F associated with O=C(O)[C@H]1O[C@@H](Oc2cc3oc(-c4ccccc4)cc(=O)c3c(O)c2O)[C@H](O)[C@@H](O)[C@@H]1O
Result :: 2.5
